Target: hERG (Homo sapiens, UniProt Q12809)
Sequence (Q12809 whole entry): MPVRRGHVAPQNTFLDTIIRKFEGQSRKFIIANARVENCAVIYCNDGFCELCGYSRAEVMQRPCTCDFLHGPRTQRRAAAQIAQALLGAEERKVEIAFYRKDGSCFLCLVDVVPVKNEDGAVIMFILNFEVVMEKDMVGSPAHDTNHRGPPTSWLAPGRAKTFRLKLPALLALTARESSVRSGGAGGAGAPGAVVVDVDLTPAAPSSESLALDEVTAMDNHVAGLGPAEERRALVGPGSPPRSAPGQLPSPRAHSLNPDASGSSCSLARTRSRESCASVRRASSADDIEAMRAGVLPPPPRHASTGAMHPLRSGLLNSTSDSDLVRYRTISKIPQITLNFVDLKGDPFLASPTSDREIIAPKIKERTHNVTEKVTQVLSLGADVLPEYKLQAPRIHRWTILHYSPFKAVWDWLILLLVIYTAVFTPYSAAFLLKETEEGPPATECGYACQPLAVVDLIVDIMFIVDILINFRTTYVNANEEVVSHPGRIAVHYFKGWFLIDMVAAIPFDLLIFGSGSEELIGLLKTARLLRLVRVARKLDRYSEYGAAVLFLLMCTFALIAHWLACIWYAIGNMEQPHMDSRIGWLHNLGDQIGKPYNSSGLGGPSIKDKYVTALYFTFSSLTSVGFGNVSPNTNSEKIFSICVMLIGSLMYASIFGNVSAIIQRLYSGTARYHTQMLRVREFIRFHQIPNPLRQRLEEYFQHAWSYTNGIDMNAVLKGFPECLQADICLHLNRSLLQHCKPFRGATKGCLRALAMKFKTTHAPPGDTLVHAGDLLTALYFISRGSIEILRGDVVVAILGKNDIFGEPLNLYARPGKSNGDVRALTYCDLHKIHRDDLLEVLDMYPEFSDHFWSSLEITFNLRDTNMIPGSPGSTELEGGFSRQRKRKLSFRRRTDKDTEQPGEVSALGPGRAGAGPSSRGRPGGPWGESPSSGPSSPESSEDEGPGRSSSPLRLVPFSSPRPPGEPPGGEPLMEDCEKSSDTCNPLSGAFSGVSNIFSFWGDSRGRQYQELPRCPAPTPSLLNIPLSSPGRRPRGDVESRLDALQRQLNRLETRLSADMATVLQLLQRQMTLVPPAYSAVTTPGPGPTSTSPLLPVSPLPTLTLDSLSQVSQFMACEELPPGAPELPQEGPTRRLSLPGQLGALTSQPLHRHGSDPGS
Assay: Effects on hERG current (whole-cell clamping)
Details: human, HEK 293 cells that express hERG, pH 7.4, hERG inhibition rate (%) (1 μM), 1 μM; tail peak current; hERG-expressed HEK 293 cells
Counter-ions that a name gives are not always drawn.
Kindly return Y if reported inhibition at 1 µM is no lower than 20%; return N if it is lower.

| compound | classification |
| --- | --- |
| Cc1c(C(=O)Nc2ccc(C3(C#N)CCC4(CC3)OCCO4)nc2)cnn1-c1ccc(Br)cn1 | Y |
| Cc1c(C(=O)Nc2ccc([C@H]3CC[C@H](N4CCOCC4)CC3)nc2)cnn1-c1ccc(C2CC2)cn1 | Y |
| Cc1c(C(=O)Nc2ccc([C@]3(C#N)CC[C@@H](N4CCOCC4)CC3)nc2)cnn1-c1ncc(Cl)cc1Cl | Y |
| N#CC1(c2ccc(NC(=O)c3ccc(-c4ccc(Cl)cc4)o3)cn2)CCC2(CC1)OCCO2 | N |
| Cc1c(C(=O)Nc2ccc([C@H]3CC[C@H](N4CCOCC4)CC3)nc2)cnn1-c1ccc(C(F)F)cn1 | Y |
| Cc1c(C(=O)Nc2ccc([C@H]3CC[C@H](O)CC3)nc2)cnn1-c1ccc(C(C)(C)C)cc1 | N |
| Cc1c(C(=O)Nc2ccc([C@]3(C#N)CC[C@@H](N4CCOCC4)CC3)nc2)cnn1-c1ccc(C(F)(F)F)cn1 [Example D1, hydrochloride] | Y |
| Cc1cc(NC(=O)c2nn(C)c3ccccc23)cnc1C1=CCC(N(C)C(=O)C(C)(C)C)CC1 (centres unmarked) | Y |

Value source: patent US9150555B2
